assayText: Cytotoxicity against BALB/c mouse splenocytes assessed as cell viability after 24 hrs by [3H]-thymidine incorporation assay
Assay type: cell-based, Splenocyte
Set-up: concentration or dose not given beside the values
testSettings: read-out: Activity
recordedMetric: viability at 24 h (%)
# number only, unit % dropped from output

Example cases with answers are listed next.
[[record]]
molecularstring = "CC(C)[C@@H](C(=O)O)N1C(=O)c2ccccc2C1=O"
experimentalvalue = 24.7

[[record]]
molecularstring = "O=C(O)[C@H](Cc1c[nH]c2ccccc12)N1C(=O)c2ccccc2C1=O"
experimentalvalue = 27.6

[[record]]
molecularstring = "O=C(O)CN1C(=O)c2ccccc2C1=O"
experimentalvalue = 25.6

[[record]]
molecularstring = "O=C(O)CC[C@@H](C(=O)O)N1C(=O)c2ccccc2C1=O"
experimentalvalue = 8.75

[[record]]
molecularstring = "O=C(O)[C@H](Cc1ccccc1)N1C(=O)c2ccccc2C1=O"
experimentalvalue = 21.5


Inquiry: Suppose we examine the compound "CC[C@H](C)[C@@H](C(=O)O)N1C(=O)c2ccccc2C1=O" ; what viability at 24 h value has been reported?
Reply text: 26.1

Inquiry: Suppose we examine the compound "O=C(O)CCN1C(=O)c2ccccc2C1=O" ; what viability at 24 h value has been reported?
Reply text: 22.2

###

assayText: Cytotoxicity against BALB/c mouse splenocytes assessed as highest nontoxic concentration after 24 hrs by [3H]-thymidine incorporation assay
Format: cell-based, Splenocyte
testSettings: read-out: Activity
recordedMetric: MNTC at 24 h (µg/mL)
# number only, unit µg/mL dropped from output

Example cases with answers are listed next.
[[record]]
molecularstring = "O=C(O)[C@H](Cc1ccccc1)N1C(=O)c2ccccc2C1=O"
experimentalvalue = 25

[[record]]
molecularstring = "O=C(O)CCN1C(=O)c2ccccc2C1=O"
experimentalvalue = 50

[[record]]
molecularstring = "O=C(O)CC[C@@H](C(=O)O)N1C(=O)c2ccccc2C1=O"
experimentalvalue = 50

[[record]]
molecularstring = "O=C(O)CN1C(=O)c2ccccc2C1=O"
experimentalvalue = 50

[[record]]
molecularstring = "O=C(O)[C@H](Cc1c[nH]c2ccccc12)N1C(=O)c2ccccc2C1=O"
experimentalvalue = 50

[[record]]
molecularstring = "CC[C@H](C)[C@@H](C(=O)O)N1C(=O)c2ccccc2C1=O"
experimentalvalue = 12.5


Inquiry: Suppose we examine the compound "CC(C)[C@@H](C(=O)O)N1C(=O)c2ccccc2C1=O" ; what MNTC at 24 h value has been reported?
Reply text: 25

###

Quick reference: Activity of the listed items.
Test system: Splenocyte
assayText: Immunomodulatory activity in BALB/c mouse splenocytes assessed as inhibition of LPS-induced nitric oxide production at 50 ug/ml after 72 hrs by Griess method relative to control
Type: functional
# number only, unit µg/mL dropped from output

Example cases with answers are listed next.
[[record]]
compound = "O=C(O)CCN1C(=O)c2ccccc2C1=O"
experimentalvalue = 4.4

[[record]]
compound = "CC[C@H](C)[C@@H](C(=O)O)N1C(=O)c2ccccc2C1=O"
experimentalvalue = 2.3

[[record]]
compound = "C[C@@H](C(=O)O)N1C(=O)c2ccccc2C1=O"
experimentalvalue = 1.5

[[record]]
compound = "CC(C)[C@@H](C(=O)O)N1C(=O)c2ccccc2C1=O"
experimentalvalue = 2.7

[[record]]
compound = "O=C(O)CN1C(=O)c2ccccc2C1=O"
experimentalvalue = 3.6


Please turn your attention to the following entry.
Inquiry: Suppose we examine the compound "O=C(O)CC[C@@H](C(=O)O)N1C(=O)c2ccccc2C1=O" ; what Activity value has been reported?
Reply text: 3.4

###

Quick reference: Activity of the listed items.
System: Splenocyte
assayText: Immunomodulatory activity in BALB/c mouse splenocytes assessed as inhibition of LPS-induced nitric oxide production at 25 ug/ml after 72 hrs by Griess method relative to control
Assay type: functional
Reply with a number, then the unit it belongs to.

[[record]]
compound = "O=C(O)CCN1C(=O)c2ccccc2C1=O"
tgt = "Splenocyte"
recordedmetric = "Activity"
experimentalvalue = "3.6 µg/mL"

[[record]]
compound = "O=C1CCC(N2C(=O)c3ccccc3C2=O)C(=O)N1 (centres undefined) [THALIDOMIDE]"
tgt = "Splenocyte"
recordedmetric = "Activity"
experimentalvalue = "3.6 µg/mL"

[[record]]
compound = "CC[C@H](C)[C@@H](C(=O)O)N1C(=O)c2ccccc2C1=O"
tgt = "Splenocyte"
recordedmetric = "Activity"
experimentalvalue = "3.1 µg/mL"


Inquiry: Suppose we examine the compound "CC(C)[C@@H](C(=O)O)N1C(=O)c2ccccc2C1=O" ; what Activity value has been reported?
Reply text: 6.4 µg/mL

Inquiry: Suppose we examine the compound "O=C(O)[C@H](Cc1c[nH]c2ccccc12)N1C(=O)c2ccccc2C1=O" ; what Activity value has been reported?
Reply text: 1.3 µg/mL

Inquiry: Suppose we examine the compound "C[C@@H](C(=O)O)N1C(=O)c2ccccc2C1=O" ; what Activity value has been reported?
Reply text: 2.1 µg/mL

Inquiry: Suppose we examine the compound "O=C(O)[C@H](Cc1ccccc1)N1C(=O)c2ccccc2C1=O" ; what Activity value has been reported?
Reply text: 2.3 µg/mL

Inquiry: Suppose we examine the compound "O=C(O)CC[C@@H](C(=O)O)N1C(=O)c2ccccc2C1=O" ; what Activity value has been reported?
Reply text: 2.9 µg/mL

Inquiry: Suppose we examine the compound "O=C(O)CN1C(=O)c2ccccc2C1=O" ; what Activity value has been reported?
Reply text: 4.2 µg/mL

###

Quick reference: inhibition at 25 µg/mL of the listed items.
System: MDA-MB-435
assayText: Antiproliferative activity against human MDA-MB-435 cells at 25 ug/ml after 48 hrs by MTT assay
Assay type: functional
testSettings: MDA-MB-435, 48 h
# number only, unit % dropped from output

[[record]]
molecularstring = "O=C(O)CC[C@@H](C(=O)O)N1C(=O)c2ccccc2C1=O"
experimentalvalue = 12.9


Inquiry: I'm curious: which inhibition at 25 µg/mL was measured for "COc1cccc2c1C(=O)c1c(O)c3c(c(O)c1C2=O)C[C@@](O)(C(=O)CO)C[C@@H]3O[C@H]1C[C@H](N)[C@H](O)[C@H](C)O1" tested on MDA-MB-435?
Reply text: 94.6

Inquiry: I'm curious: which inhibition at 25 µg/mL was measured for "CC(C)[C@@H](C(=O)O)N1C(=O)c2ccccc2C1=O" tested on MDA-MB-435?
Reply text: 7.82

Inquiry: I'm curious: which inhibition at 25 µg/mL was measured for "O=C(O)[C@H](Cc1ccccc1)N1C(=O)c2ccccc2C1=O" tested on MDA-MB-435?
Reply text: 11.7

Inquiry: I'm curious: which inhibition at 25 µg/mL was measured for "O=C(O)CN1C(=O)c2ccccc2C1=O" tested on MDA-MB-435?
Reply text: -4.72

Inquiry: I'm curious: which inhibition at 25 µg/mL was measured for "CC[C@H](C)[C@@H](C(=O)O)N1C(=O)c2ccccc2C1=O" tested on MDA-MB-435?
Reply text: 14.9

Inquiry: I'm curious: which inhibition at 25 µg/mL was measured for "C[C@@H](C(=O)O)N1C(=O)c2ccccc2C1=O" tested on MDA-MB-435?
Reply text: 5.01

Inquiry: I'm curious: which inhibition at 25 µg/mL was measured for "O=C(O)CCN1C(=O)c2ccccc2C1=O" tested on MDA-MB-435?
Reply text: -3.71

Inquiry: I'm curious: which inhibition at 25 µg/mL was measured for "O=C(O)[C@H](Cc1c[nH]c2ccccc12)N1C(=O)c2ccccc2C1=O" tested on MDA-MB-435?
Reply text: 13.8

###

System: HCT-8
assayText: Antiproliferative activity against human HCT8 cells at 25 ug/ml after 48 hrs by MTT assay
Assay type: functional
testSettings: HCT-8, 48 h
recordedMetric: inhibition at 25 µg/mL (%)
# number only, unit % dropped from output

Inquiry: Suppose we examine the compound "O=C(O)CC[C@@H](C(=O)O)N1C(=O)c2ccccc2C1=O" ; what inhibition at 25 µg/mL value has been reported?
Reply text: 6.52

Inquiry: Suppose we examine the compound "O=C(O)CCN1C(=O)c2ccccc2C1=O" ; what inhibition at 25 µg/mL value has been reported?
Reply text: 18.9

Inquiry: Suppose we examine the compound "C[C@@H](C(=O)O)N1C(=O)c2ccccc2C1=O" ; what inhibition at 25 µg/mL value has been reported?
Reply text: 6.11

###

System: Splenocyte
assayText: Immunomodulatory activity in BALB/c mouse splenocytes assessed as inhibition of LPS-induced nitric oxide production at 50 ug/ml after 72 hrs by Griess method relative to control
Assay type: functional
recordedMetric: Activity (µg/mL)
# number only, unit µg/mL dropped from output

[[record]]
compound = "O=C1CCC(N2C(=O)c3ccccc3C2=O)C(=O)N1 (stereo not drawn) [THALIDOMIDE]"
tgt = "Splenocyte"
experimentalvalue = 3.6

[[record]]
compound = "O=C(O)[C@H](Cc1ccccc1)N1C(=O)c2ccccc2C1=O"
tgt = "Splenocyte"
experimentalvalue = 0.7


Please turn your attention to the following entry.
Inquiry: I'm curious: which Activity was measured for "O=C(O)[C@H](Cc1c[nH]c2ccccc12)N1C(=O)c2ccccc2C1=O" tested on Splenocyte?
Reply text: 2.1
